targetEntity: Calcium/calmodulin-dependent protein kinase type II subunit beta (Homo sapiens) (UniProt Q13554)
Sequence (Q13554 whole entry): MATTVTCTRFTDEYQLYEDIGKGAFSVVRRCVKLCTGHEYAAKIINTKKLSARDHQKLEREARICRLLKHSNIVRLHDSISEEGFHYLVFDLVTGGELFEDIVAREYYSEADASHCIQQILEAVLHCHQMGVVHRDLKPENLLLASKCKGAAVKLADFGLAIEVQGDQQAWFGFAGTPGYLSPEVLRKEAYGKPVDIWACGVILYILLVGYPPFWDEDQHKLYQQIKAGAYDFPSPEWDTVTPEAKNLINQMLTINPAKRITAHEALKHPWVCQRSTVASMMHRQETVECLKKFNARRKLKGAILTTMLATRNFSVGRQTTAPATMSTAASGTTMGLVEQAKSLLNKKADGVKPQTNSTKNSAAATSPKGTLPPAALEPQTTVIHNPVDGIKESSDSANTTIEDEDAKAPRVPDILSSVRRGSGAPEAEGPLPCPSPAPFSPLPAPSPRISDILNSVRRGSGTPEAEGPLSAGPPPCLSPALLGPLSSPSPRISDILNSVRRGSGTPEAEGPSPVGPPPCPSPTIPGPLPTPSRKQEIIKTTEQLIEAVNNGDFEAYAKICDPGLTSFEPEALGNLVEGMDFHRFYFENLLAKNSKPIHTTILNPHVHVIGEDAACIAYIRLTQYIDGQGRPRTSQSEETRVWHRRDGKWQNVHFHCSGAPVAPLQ
conditions: at 10 µM
measure: residual activity (%)
One number for each entry, in %.

Previously resolved entries follow.
compound	resultNumber
CC[n+]1c(/C=C/N(C)c2ccccc2)n(-c2ccccc2)c2ccc(-c3nc4ccccc4s3)cc21	38
Cc1cc(Nc2nc(-c3ccccc3)nc3ccccc23)n[nH]1	42
COc1cccc(-c2cc(=O)c3ccccc3o2)c1N	87

Dear reader, for each entry below, please note its residual activity.
1. COc1cc2ncnc(Nc3ccc(O)c(Br)c3)c2cc1OC
2. O=C1NC(=O)/C(=C\c2ccc3nccnc3c2)S1
3. O=c1c2ccccc2[nH]c(=S)n1CCN1CCC(=C(c2ccc(F)cc2)c2ccc(F)cc2)CC1
4. Cc1cncc2cccc(S(=O)(=O)N3CCCN(C(=O)CN)C[C@H]3C)c12

62
18
79
49

Dear reader, for each entry below, please note its residual activity.
1. CC#CC(=O)Nc1cc2c(Nc3ccc(F)c(Cl)c3)ncnc2cn1
2. Nc1cccc(-c2cc3c(Oc4cccc(O)c4)ncnc3[nH]2)c1
3. CNc1cc2c(Nc3cccc(Br)c3)ncnc2cn1
4. CC(=O)c1ccc(N2CCOCC2)cc1O
5. Cc1nc2cc3nc(-c4cccs4)cnc3cc2n1C
6. COc1cc2ncc(-c3ccccc3)nc2cc1OC
7. COc1ccc(CNc2nc(N(CCO)CCO)nc3c2ncn3C(C)C)cc1
8. c1ccc2c(-c3ccncc3)c[nH]c2c1

84
23
51
92
93
82
55
10

Dear reader, for each entry below, please note its residual activity.
1. CCC(=O)Nc1ccc2ncnc(Nc3cccc(Br)c3)c2c1
2. Oc1ccc(Nc2nc(-c3ccc(Cl)cc3)cs2)cc1
3. NC(=O)c1ccc2[nH]c(-c3ccc(Oc4ccc(Cl)cc4)cc3)nc2c1
4. CO[C@@H]1[C@H](N(C)C(=O)c2ccccc2)C[C@H]2O[C@]1(C)n1c3ccccc3c3c4c(c5c6ccccc6n2c5c31)C(=O)NC4
5. O=C(Nc1cccc(Nc2nccc(Nc3cccc(C(F)(F)F)c3)n2)c1)C1CC1
6. CN(C)CCCn1cc(C2=C(c3c[nH]c4ccccc34)C(=O)NC2=O)c2ccccc21
7. c1ccc(-c2n[nH]cc2-c2ccnc3ccccc23)nc1
8. COc1ccc(C(=O)Nc2sc3c(c2C(N)=O)CCCC3)cc1OC

[80, 92, 43, 4, 38, 18, 68, 73]

Dear reader, for each entry below, please note its residual activity.
1. CN(C)c1ccc(/C=C2\C(=O)Nc3ccccc32)cc1
2. CC(C)n1cnc2c(NCc3ccccc3)nc(NCCCO)nc21
3. O=C1Nc2ccccc2/C1=C1/Nc2ccccc2/C1=N\OCCC(O)CO (configuration not stated)
4. Cn1cnc2cc3c(Nc4cccc(Br)c4)ncnc3cc21
5. N#Cc1cnc2cnc(NCc3cccnc3)cc2c1Nc1ccc(F)c(Cl)c1
6. Cc1ccc(NC2=CC(=O)c3sc(C)nc3C2=O)cc1

[76, 66, 4, 89, 1, 81]

Dear reader, for each entry below, please note its residual activity.
1. CCN(CC)C(=O)c1ccc(Nc2nc(OCC3CCCCC3)c3nc[nH]c3n2)cc1
2. COc1cc2ncnc(Nc3ccc(NC(=O)c4ccccc4)cc3)c2cc1OC
3. O=c1cc(-c2cccc3c2Sc2ccccc2S3)oc(N2CCOCC2)c1
4. COc1ccc(S(=O)(=O)N(CCO)c2ccccc2CN(C)C/C=C/c2ccc(Cl)cc2)cc1
5. N#CCCc1ccc2c(c1)-c1[nH]c3ccc([N+](=O)[O-])cc3c1CC(=O)N2
6. O=C1NC(=O)/C(=C/c2ccc3c(c2)OC(F)(F)O3)S1
7. Oc1n[nH]c2nnc(-c3c(-c4ccccc4)nn4ccccc34)cc12

1: 51; 2: 94; 3: 82; 4: 20; 5: 32; 6: 71; 7: 80

Dear reader, for each entry below, please note its residual activity.
1. CO[C@H]1[C@@H](OC)C[C@H](C)[C@@H](OC)C2=CC(=O)C=C(NC(=O)/C(C)=C/C=C/[C@H](OC)[C@@H](OC(N)=O)/C(C)=C/[C@@H]1C)C2=O
2. CO[C@H]1C[C@@H]2CC[C@@H](C)[C@@](O)(O2)C(=O)C(=O)N2CCCC[C@H]2C(=O)O[C@H]([C@H](C)C[C@@H]2CC[C@@H](O)[C@H](OC)C2)CC(=O)[C@H](C)/C=C(\C)[C@@H](O)[C@@H](OC)C(=O)[C@H](C)C[C@H](C)/C=C/C=C/C=C/1C

1: 93; 2: 79

Dear reader, for each entry below, please note its residual activity.
1. CC(C)n1cnc2/c(=N/c3cccc(Cl)c3)nc(NCCO)[nH]c21
2. N#CC(C#N)=C(N)/C(C#N)=C/c1ccc(O)cc1
3. CCOc1cc2ncnc(Nc3cccc(Br)c3)c2cc1OCC
4. COc1ccc(OC)c2c(=S)c3ccccc3[nH]c12

1. 41
2. 90
3. 64
4. 54
